Origin of the recorded values: paper PMC4764904

biological target: human GALR3 (Homo sapiens, UniProt O60755); construct: host or cells: HEK293 cells stably expressing Gαqi; experiment: SRE-luc reporter assay, GALR3; assay type: cell-based; conditions: HEK293-Gqi cells transfected with SRE-luc and human GALR3; 6 h ligand treatment; mean ± S.E. of at least three independent experiments; NM = not measurable; read-out: GALR3 EC50
Sequence (O60755 whole entry): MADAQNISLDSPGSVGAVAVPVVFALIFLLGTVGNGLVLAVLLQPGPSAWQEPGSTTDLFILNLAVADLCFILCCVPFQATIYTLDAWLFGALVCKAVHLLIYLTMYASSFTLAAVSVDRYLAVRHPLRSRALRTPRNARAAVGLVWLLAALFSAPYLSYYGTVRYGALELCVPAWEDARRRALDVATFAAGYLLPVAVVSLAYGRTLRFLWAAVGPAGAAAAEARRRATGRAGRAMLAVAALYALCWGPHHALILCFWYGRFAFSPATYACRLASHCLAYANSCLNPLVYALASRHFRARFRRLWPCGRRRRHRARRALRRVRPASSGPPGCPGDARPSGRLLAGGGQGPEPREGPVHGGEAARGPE
Where a SMILES comes first, the peptide text is derived from it. [ ]: non-standard residue; d: D form. Cit = NC(=O)NCCC[C@H](N)C(=O)O

molecule: CSCC[C@H](NC(=O)[C@H](C)NC(=O)[C@H](CCC(N)=O)NC(=O)[C@@H]1CCCN1C(=O)[C@@H](NC(=O)[C@H](Cc1c[nH]c2ccccc12)NC(=O)[C@@H](N)CCCNC(N)=O)[C@@H](C)O)C(=O)N[C@@H](CC(C)C)C(=O)N[C@@H](Cc1ccc(O)cc1)C(=O)N[C@@H](CC(C)C)C(=O)N[C@@H](CCCCN)C(=O)NCC(=O)N[C@@H](C)C(=O)N[C@@H](CCC(N)=O)C(N)=O [Cit1] (H-[Cit]WTPQAMLYLKGAQ-NH2)
EC50 / nM: 251

###

molecular target: human GALR3 (Homo sapiens, UniProt O60755); construct: host or cells: HEK293 cells stably expressing Gαqi; assay: SRE-luc reporter assay, GALR3;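 further: luciferase activity read in cell lysates across rising peptide concentrations, EC50 being the agonist concentration giving half-maximal stimulation from a sigmoidal nonlinear fit, Gαqi routing Gi-coupled receptor signaling through Gq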; format: cell-based; conditions: HEK293-Gqi cells transfected with SRE-luc and human GALR3; 6 h ligand treatment; mean ± S.E. of at least three independent experiments; NM = not measurable; read-out: GALR3 EC50

smiles.structure: CSCC[C@H](NC(=O)[C@H](C)NC(=O)[C@H](CCC(N)=O)NC(=O)[C@@H]1CCCN1C(=O)[C@@H](NC(=O)[C@H](Cc1c[nH]c2ccccc12)NC(=O)[C@@H](N)CC(N)=O)[C@@H](C)O)C(=O)N[C@@H](CC(C)C)C(=O)N[C@H](Cc1ccc(O)cc1)C(=O)N[C@@H](CC(C)C)C(=O)N[C@@H](CCCCN)C(=O)NCC(=O)N[C@@H](C)C(=O)N[C@@H](CCC(N)=O)C(N)=O
reading.unit: nM
value.prefix: >
EC50: 10000

smiles.structure: CSCC[C@H](NC(=O)[C@H](C)NC(=O)[C@H](CCC(N)=O)NC(=O)[C@@H]1CCCN1C(=O)[C@@H](NC(=O)[C@H](Cc1c[nH]c2ccccc12)NC(=O)[C@H](N)CC(N)=O)[C@@H](C)O)C(=O)N[C@@H](CC(C)C)C(=O)N[C@@H](Cc1ccc(O)cc1)C(=O)N[C@@H](CC(C)C)C(=O)N[C@@H](CCCCN)C(=O)NCC(=O)N[C@@H](C)C(=O)N[C@@H](CCC(N)=O)C(N)=O
reading.unit: nM
value.prefix: =
EC50: 38.9

smiles.structure: CSCC[C@H](NC(=O)[C@H](C)NC(=O)[C@H](CCC(N)=O)NC(=O)[C@@H]1CCCN1C(=O)[C@@H](NC(=O)[C@H](Cc1c[nH]c2ccccc12)NC(=O)[C@H](CC(N)=O)NC(C)=O)[C@@H](C)O)C(=O)N[C@@H](CC(C)C)C(=O)N[C@@H](Cc1ccc(O)cc1)C(=O)N[C@@H](CC(C)C)C(=O)N[C@@H](CCCCN)C(=O)NCC(=O)N[C@@H](C)C(=O)N[C@@H](CCC(N)=O)C(N)=O
reading.unit: nM
value.prefix: =
EC50: 81.3

smiles.structure: CSCC[C@H](NC(=O)[C@H](C)NC(=O)[C@H](CCC(N)=O)NC(=O)[C@@H]1CCCN1C(=O)[C@@H](NC(=O)[C@@H](Cc1c[nH]c2ccccc12)NC(=O)[C@@H](N)CC(N)=O)[C@@H](C)O)C(=O)N[C@@H](CC(C)C)C(=O)N[C@@H](Cc1ccc(O)cc1)C(=O)N[C@@H](CC(C)C)C(=O)N[C@@H](CCCCN)C(=O)NCC(=O)N[C@@H](C)C(=O)N[C@@H](CCC(N)=O)C(N)=O
reading.unit: nM
value.prefix: =
EC50: 138
